test system: UACC-257 melanoma; experiment: NCI-60 one-dose screen, 48 h (100 = growth as untreated, 0 = no growth, -100 = all killed); settings: 10 µM unless noted
The panel holds about 83,000 compounds, 20% with a hit somewhere; the sample as a whole holds those more often.
Label Met for high-side growth (at or above 50%) and Not met for low-side growth (below it).

Illustrative cases are given below, each with its answer.
molecule	qualitative_label
COc1ccccc1NC(=O)c1ccc(/C=C/C(=O)c2nccn2C)cc1	Not met
COc1ccc2c(c1)c(-c1nonc1-c1c[nH]c3ccc(Br)cc13)cn2C	Met
CCCCCn1sc(=O)n(Cc2ccc(CNC(=O)OCc3ccc4c(Cl)cc(Cl)c(O)c4n3)cc2)c1=O	Met
CN(C)c1ccc(/C=C/C(=O)c2ccc(Nc3nc(Nc4ccc(F)cc4)nc(Nc4ccc(Cl)cc4)n3)cc2)cc1	Met

Does the molecule "Nc1ccc([N+](=O)[O-])cc1N=C/C=C/c1ccccc1" have recorded growth that is 50% or more?
Met

Please give the result for "COC(=O)c1c2c(n3ccc(C)cc13)C(=O)c1ccccc1C2=O" too.
Met

Next up: "COc1ccc(/C=C/C(=O)c2ccc(Nc3nc(Nc4ccc(F)cc4)nc(Nc4ccc(Cl)cc4)n3)cc2)cc1"
Met

What do you get for "O=C1CCCc2nc3sc4c(=O)n(-c5ccccc5Cl)nnc4c3cc21" ?
Met

What do you have for "CNC(=O)c1cc(Oc2ccc3nc(NC(=O)Nc4ccc(Cl)c(Cl)c4)sc3c2)ccn1" ?
Met

Also check "CS(=O)(=O)Nc1cncc(-c2ccc3ncnc(Nc4ccc(F)c(Cl)c4)c3c2)c1"
Not met

Now give it for "COc1ccc(Cl)cc1Nc1nc(C(F)(F)F)ccc1C(=O)N/N=C/c1ccccc1Cl" too.
Not met

// query: CCN(CC)CCCC(C)Nc1ccc2cc(OC)ccc2n1 (centres undefined)
Met

And for "C[C@@H]1O[C@@H](O[C@@H]2C[C@H](c3ccc4c(c3O)C(=O)C3=C(C4=O)[C@@]4(O)C(=O)C[C@](C)(O)C[C@@]4(O)C=C3)O[C@H](C)[C@H]2O)C[C@H](O)[C@@H]1O" ?
Met

What about "NNC(=S)N/N=C/c1ccccn1" ?
Not met

For CN(Cc1cnc2nc(N)nc(N)c2n1)c1c(Cl)cc(C(=O)NC(CCC(=O)O)C(=O)O)cc1Cl (centres undefined) then?
Not met

Moving on to the next molecule: "NC(=O)c1c(NC(=O)c2ccc(Cl)cc2)sc2c1CCC(=O)C2"
Met

Then "CCOC(=O)c1c2c(n3c1NCC3)-c1ccccc1C2=O" ?
Met

Also, "COc1ccc(-c2nnc(SCC(=O)Nc3ccc(/C(C)=N\O)cc3)n2-c2ccccc2)cc1OC" please.
Met

Another molecule to check: CN1C(=O)N(C)C2C1NC(=S)N2/N=C/C=C/c1ccccc1[N+](=O)[O-] (centres undefined)
Not met

Source listed as PubChem BioAssay (NCI).
